Cited source for all entries: patent US11040033B2

# TGT: IDO1 (Homo sapiens, UniProt P14902)
# Construct: HeLa cells were treated with a test compound in the presence of IFNγ, which induces IDO1 expression; endogenous in cells
# Sequence (P14902 whole entry): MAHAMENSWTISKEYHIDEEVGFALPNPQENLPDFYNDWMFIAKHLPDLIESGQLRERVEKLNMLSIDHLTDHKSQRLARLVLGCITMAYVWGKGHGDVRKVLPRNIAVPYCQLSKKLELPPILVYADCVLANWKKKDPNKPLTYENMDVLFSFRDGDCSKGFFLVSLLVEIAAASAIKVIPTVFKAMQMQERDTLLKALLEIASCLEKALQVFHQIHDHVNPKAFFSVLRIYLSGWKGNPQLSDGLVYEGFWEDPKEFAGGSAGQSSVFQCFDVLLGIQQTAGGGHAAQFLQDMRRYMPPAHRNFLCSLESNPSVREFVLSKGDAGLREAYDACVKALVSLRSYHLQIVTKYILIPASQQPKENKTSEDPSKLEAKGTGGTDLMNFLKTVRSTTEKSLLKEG
# TEST_DETAILS: Cell-based (HeLa) assay for measurement of IDO1 inhibition (kynurenine levels in supernatant after IFNγ induction)
# EXPERIMENTAL_CONTEXT: H1-HeLa cells, IFNγ-induced IDO1, 48 hour incubation, kynurenine absorbance at 480 nm; geometric mean of a minimum of four determinations
ASSAY_READOUT: EC50 (nM)
Write the answer as a number in nM, unit excluded.

Study these solved cases before continuing.
{"columns": ["COMPOUND", "TGT", "EC50 [nM]"],
 "data": [
  ["Cc1ccc(-c2cccn3c(-c4cccc(F)c4F)ncc23)cc1C(=O)Nc1ccc(F)cc1 [Example 34]", "IDO1 (Homo sapiens, UniProt P14902)", 29.4],
  ["Cc1ccc(-c2nccn3c(-c4ccccc4C)ncc23)cc1C(=O)Nc1ccc(F)cc1 [Example 52]", "IDO1 (Homo sapiens, UniProt P14902)", 3110],
  ["O=C(Nc1ccc(F)cc1)c1cc(-c2cccn3c(-c4cccnc4)ncc23)ccc1C(F)(F)F [Example 31]", "IDO1 (Homo sapiens, UniProt P14902)", 38.3]
]}

# context switch: different compound, same EC50
Query: Please give the measured EC50 for this compound: Cc1ccc(-c2cccn3c(-c4ccc(F)cc4C)nnc23)cc1C(=O)Nc1ccc(F)cc1 [Example 5]
Response: 1410

* * *

Collected log10(EC50) values appear next to each entry.
# TGT: IDO1 (Homo sapiens)
# Construct: HeLa cells were treated with a test compound in the presence of IFNγ, which induces IDO1 expression; endogenous in cells; host or cells: H1-HeLa cells (ATCC #CRL-1958), induced with IFNγ
# TEST_DETAILS: Cell-based (HeLa) assay for measurement of IDO1 inhibition (kynurenine levels in supernatant after IFNγ induction)
# EXPERIMENTAL_CONTEXT: H1-HeLa cells, IFNγ-induced IDO1, 48 hour incubation, kynurenine absorbance at 480 nm; geometric mean of a minimum of four determinations
Please note: log10 values; quantity EC50; unit nM.

// known answers, use as guide
{"columns": ["LINE_NOTATION", "VALUE_REPORTED"],
 "data": [
  ["Cc1ccn2c(-c3cccc(F)c3F)ncc2c1-c1cnc(C)c(C(=O)Nc2ccc(F)cc2)c1", 2.86],
  ["O=C(Nc1ccc(F)cc1)c1cc(-c2cccn3c(-c4cccc(F)c4F)ncc23)cnc1N1CCC1", 2.09],
  ["Cc1ccc(-c2cccn3c(-c4cn(C)cn4)ncc23)cc1C(=O)Nc1ccc(F)cc1", 2.51]
]}

Query: Need log10(EC50), item `Cc1ncc(-c2cccn3c(-c4cc(F)cc(F)c4)ncc23)cc1C(=O)Nc1ccc(F)cc1`
Response: 1.79

Query: Entry `Cc1ncc(-c2cccn3c(C4CCCC4)ncc23)cc1C(=O)Nc1ccc(F)cc1` : reported log10(EC50) = ?
Response: 2.66

Query: Given `Cc1ncc(-c2cccn3c(-c4cccc(Cl)c4F)ncc23)cc1C(=O)Nc1ccc(F)cc1` , state its recorded log10(EC50).
Response: 1.69

Query: For the molecule `Cc1ncc(-c2cccn3c(-c4cccc(F)c4F)ncc23)cc1C(=O)Nc1ccc(F)c(Br)c1` , what log10(EC50) is on record?
Response: 2.49

Query: Returns the measured log10(EC50) for the input molecule. Input: `O=C(Nc1ccc(F)cc1)c1cc(-c2cccn3c(-c4cccnn4)ncc23)ccc1C(F)(F)F`
Response: 2.37
